molecular target: G-protein coupled receptor 68 (Homo sapiens); assay: Positive allosteric modulation of human GPR68 expressed in HEK293T cells co-expressing Gs assessed as stimulation of proton-mediated cAMP production by measuring efficacy cooperativity in HBSS buffer containing pH 6.8 to 8.2 HEPES/pH 8.3 to 8.6 TAPS measured after 20 to 30 mins in presence of PDE inhibitor Ro 20-1724 by luciferase-glo reporter gene assay; type: functional, cell-based
Property: log(activity); scope: individual compounds

{"columns": ["molecule", "assayed_system", "log(activity)"],
 "data": [
  ["CCOc1ccc(CNc2nc(N)nc(-c3ccccc3CO)n2)cc1", "G-protein coupled receptor 68 (Homo sapiens)", -0.01],
  ["CNc1nc(NCc2ccccc2)nc(-c2ccccc2CO)n1", "G-protein coupled receptor 68 (Homo sapiens)", 0.37],
  ["Nc1nc(NCCc2ccc(Oc3ccccc3)cc2)nc(-c2c(F)cccc2CO)n1", "G-protein coupled receptor 68 (Homo sapiens)", -0.06],
  ["CCOc1ccc(-c2nc(N)nc(NCc3ccccc3)n2)c(CO)c1", "G-protein coupled receptor 68 (Homo sapiens)", 0.1],
  ["Nc1nc(NCCCCc2ccccc2)nc(-c2ccccc2CO)n1", "G-protein coupled receptor 68 (Homo sapiens)", 0.21],
  ["Nc1nc(NCCCCc2ccc(Oc3ccccc3)cc2)nc(-c2ccccc2CO)n1", "G-protein coupled receptor 68 (Homo sapiens)", 0.09]
]}

query: Kindly indicate its recorded log(activity). Item: Nc1nc(NCCc2ccc(Oc3ccccc3)cc2)nc(-c2ccccc2CO)n1
result: 0.03

query: Kindly indicate its recorded log(activity). Item: Nc1nc(NCc2ccc(F)cc2)nc(-c2ccccc2CO)n1
result: 0.36

query: Kindly indicate its recorded log(activity). Item: Nc1nc(NCc2ccccc2C(F)(F)F)nc(-c2ccccc2CO)n1
result: 0.31

query: Kindly indicate its recorded log(activity). Item: Nc1nc(NCc2ccccc2)nc(-c2cc(Cl)ccc2CO)n1
result: 0.09

* * *

molecular target: G-protein coupled receptor 68 (Mus musculus) (UniProt Q8BFQ3); test: Positive allosteric modulation of mouse GPR68 expressed in HEK293T cells co-expressing Gs assessed as stimulation of proton-mediated cAMP production by measuring allosteric affinity cooperativity in HBSS buffer containing pH 6.8 to 8.2 HEPES/pH 8.3 to 8.6 TAPS measured after 20 to 30 mins in presence of PDE inhibitor Ro 20-1724 by luciferase-glo reporter gene assay; type: functional, cell-based
Sequence (Q8BFQ3 whole entry): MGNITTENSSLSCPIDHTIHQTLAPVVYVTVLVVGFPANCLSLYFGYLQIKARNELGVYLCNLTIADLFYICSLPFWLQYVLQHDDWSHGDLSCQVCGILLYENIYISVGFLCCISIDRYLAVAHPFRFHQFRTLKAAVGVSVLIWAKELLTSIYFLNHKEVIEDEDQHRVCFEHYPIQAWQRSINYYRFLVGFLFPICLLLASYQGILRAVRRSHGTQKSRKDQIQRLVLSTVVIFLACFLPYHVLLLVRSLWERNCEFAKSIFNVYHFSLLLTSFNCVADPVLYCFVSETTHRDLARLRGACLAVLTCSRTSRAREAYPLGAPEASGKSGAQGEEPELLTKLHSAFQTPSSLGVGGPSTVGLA
measurement_type: log(activity)
// return a plain number; no unit text

Here's what some known entries look like.
{"columns": ["molecule", "assayed_system", "measurement_type", "readout_value"],
 "data": [
  ["Nc1nc(NCc2ccc(Cl)cc2)nc(-c2ccccc2CO)n1", "G-protein coupled receptor 68 (Mus musculus) (UniProt Q8BFQ3)", "log(activity)", 1.41],
  ["Nc1nc(NCCc2ccccc2)nc(-c2cc(Cl)ccc2CO)n1", "G-protein coupled receptor 68 (Mus musculus) (UniProt Q8BFQ3)", "log(activity)", 1.06],
  ["Nc1nc(NCCCCc2ccccc2)nc(-c2ccccc2CO)n1", "G-protein coupled receptor 68 (Mus musculus) (UniProt Q8BFQ3)", "log(activity)", 0.91]
]}

Pending compound:
query: Give log(activity) for this entry on G-protein coupled receptor 68 (Mus musculus) (UniProt Q8BFQ3): Nc1nc(NCCCc2ccccc2)nc(-c2cc(Cl)ccc2CO)n1
result: 0.99
